Origin of values: the supplement of paper PMC10567573

B1: SCNN1D (parent)
chain: FLGHHSFSVRPGTEATISIREDEV

# Variants of: B1
# protocol summary: protein stability index of a GFP-peptide fusion (GPS, HEK-293T) (PSI 1-6); higher = more stable;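 note: lentivirally expressed fusions sorted by FACS into six bins by GFP to DsRed ratio, PSI derived from sequencing read proportions per bin multiplied by bin number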
# measurement setup: c terminus: a fixed tail appended
parameter: protein stability index
Please give only the number in your answer, with no unit.

protein stability index in this record for `S8Y` : 1.86

protein stability index in this record for `D22P` : 1.74

protein stability index in this record for `E21G` : 1.33

protein stability index in this record for `R10S` : 2.35

protein stability index in this record for `S6N` : 2.08

protein stability index in this record for `V24M` : 2.75

protein stability index in this record for `F7T` : 4.81

protein stability index in this record for `E23A` : 1.96

protein stability index in this record for `H4D` : 3.7

protein stability index in this record for `F7H` : 4.17

protein stability index in this record for `D22L` : 1.51

protein stability index in this record for `H4S` : 1.9

protein stability index in this record for `I17V` : 1.68

protein stability index in this record for `S8T` : 1.62

protein stability index in this record for `S18H` : 1.33

protein stability index in this record for `F7Y` : 2.38

protein stability index in this record for `I17T` : 2.24

protein stability index in this record for `I19E` : 1.71

protein stability index in this record for `F7S` : 4.1

protein stability index in this record for `R10Y` : 1.63

protein stability index in this record for `T13M` : 1.73

protein stability index in this record for `E14I` : 1.77

protein stability index in this record for `V9Q` : 2.86

protein stability index in this record for `V24L` : 1.66

protein stability index in this record for `S18E` : 2.49

protein stability index in this record for `T16C` : 1.29

protein stability index in this record for `E21P` : 2.33

protein stability index in this record for `R20D` : 1.9

protein stability index in this record for `H5Q` : 1.25

protein stability index in this record for `I17R` : 2.07

protein stability index in this record for `T13P` : 1.88

protein stability index in this record for `V24C` : 1.81

protein stability index in this record for `I17Q` : 2.54

protein stability index in this record for `S8V` : 1.8

protein stability index in this record for `R10C` : 2.52

protein stability index in this record for `R20K` : 1.73

protein stability index in this record for `G3N` : 2.26

protein stability index in this record for `R20G` : 2.3

protein stability index in this record for `R20Q` : 1.79

protein stability index in this record for `P11L` : 1.82

protein stability index in this record for `F1A` : 3.92

protein stability index in this record for `T16N` : 2.05

protein stability index in this record for `S6T` : 2.02

protein stability index in this record for `G12E` : 1.88

protein stability index in this record for `D22E` : 2.11

protein stability index in this record for `V24T` : 1.66

protein stability index in this record for `S18M` : 1.55

protein stability index in this record for `S8F` : 1.37

protein stability index in this record for `D22W` : 1.77

protein stability index in this record for `G12F` : 2.69

protein stability index in this record for `V24S` : 1.62

protein stability index in this record for `E23I` : 2.23

protein stability index in this record for `P11R` : 2.02

protein stability index in this record for `R20M` : 1.5

protein stability index in this record for `F1P` : 4.64

protein stability index in this record for `F1M` : 4.68

protein stability index in this record for `T13H` : 2.03

protein stability index in this record for `I19V` : 2.74

protein stability index in this record for `S8I` : 2.04

protein stability index in this record for `S18P` : 1.8

protein stability index in this record for `E23L` : 1.66

protein stability index in this record for `I19N` : 2.42

protein stability index in this record for `S8W` : 2.68

protein stability index in this record for `S6H` : 2.08

protein stability index in this record for `V9C` : 2.08

protein stability index in this record for `E23K` : 2.38

protein stability index in this record for `A15E` : 1.93

protein stability index in this record for `D22Y` : 3.14

protein stability index in this record for `R20H` : 1.67

protein stability index in this record for `L2Q` : 1.95

protein stability index in this record for `I17K` : 2.32

protein stability index in this record for `E21F` : 2.3

protein stability index in this record for `V9N` : 2.6

protein stability index in this record for `T13R` : 1.7

protein stability index in this record for `L2C` : 2.18

protein stability index in this record for `S6R` : 2.19

protein stability index in this record for `E23M` : 1.91

protein stability index in this record for `R20Y` : 1.77

protein stability index in this record for `R20E` : 2.1

protein stability index in this record for `S18Y` : 1.71

protein stability index in this record for `H5P` : 2.13

protein stability index in this record for `E23F` : 2.45

protein stability index in this record for `F7G` : 4.43

protein stability index in this record for `G3Y` : 3.25

protein stability index in this record for `R20S` : 2.27

protein stability index in this record for `A15D` : 2.08

protein stability index in this record for `E23C` : 1.88

protein stability index in this record for `V24P` : 1.76

protein stability index in this record for `L2G` : 2.72

protein stability index in this record for `F7L` : 4.01

protein stability index in this record for `R10V` : 2.41
